system: HL-60(TB) leukemia; assay: NCI tumour cell line growth inhibition, 48 h
assay-metric: GI50

compound	measured-result
N#C/C(=C/C=C/c1ccccc1)S(=O)c1ccccc1 (stereo not given)	0.288 µM
CC1OC(O[C@H]2/C=C/C=C/C=C/C=C/C=C/C=C/C=C/[C@H](C)[C@@H](O)[C@@H](C)[C@H](C)OC(=O)C[C@H](O)C[C@H](O)CC[C@@H](O)[C@H](O)C[C@H](O)C[C@]3(O)C[C@H](O)[C@@H](C(=O)O)[C@H](C2)O3)C(O)C(N)C1O (stereo not given in full)	3.29 µM
CCCCNC(=O)Oc1ccc2c(=O)c3sc4c(=O)c5ccccc5c(=O)c4c3c(=O)c2c1	3.11 µM
O=S(=O)(NCCCNc1cc(-c2cn(-c3ccccc3)nc2-c2cccc(O)c2)ccn1)c1cccc2ccccc12	2.7 µM
COc1c(B(O)O)cccc1-c1nc2c(F)cc3[nH]ncc3c2c2c1CCCC2	0.436 µM
C#Cc1cccc(Nc2ncnc3ccc(-c4cnc(Cl)c(NS(C)(=O)=O)c4)cc23)c1	0.207 µM
Oc1ccc2ccccc2c1N=Nc1ccccn1	0.469 µM
O=C(O[C@H]1CN[C@H](C#Cc2cc3ncnc(Nc4ccc(OCc5cccc(F)c5)c(Cl)c4)c3s2)C1)N1CCOCC1	6.11 µM
O=C(NC1CCN(Cc2ccccc2)CC1)c1cc(C(=O)NC2CCN(Cc3ccccc3)CC2)cc(C(=O)NC2CCN(Cc3ccccc3)CC2)c1	15.1 µM
CCC(c1ccc(OC)cc1)C(CC)c1ccc(O)c(CN2CCCC2)c1 (stereo not given)	2.14 µM

----------
system: SW-620 colon; assay: NCI tumour cell line growth inhibition, 48 h; in the data active = GI50 below about 0.43 µM; inactive = the rest
Outcomes: true (active), false (inactive)

> print(dat)
                                   molecule  qualitative.label
1  CN(C)c1ccc2cc(-c3cc4c(oc3=O)-c3ccccc3OC4O)c(=O)oc2c1 (stereo not given)              false
2  CCCCNC(=O)Oc1ccc2c(=O)c3sc4c(=O)c5ccccc5c(=O)c4c3c(=O)c2c1               true
3  O=C1/C(=C/c2ccccc2)CN(CCC(=O)N2C/C(=C\c3ccccc3)C(=O)/C(=C/c3ccccc3)C2)C/C1=C\c1ccccc1              false
4  COc1ccc(Cl)cc1NC(=O)c1c(NC(=O)C(F)(F)C(F)(F)F)sc2c1CCCCC2              false
5                Oc1ccc2ccccc2c1N=Nc1ccccn1              false

----------
system: RXF 393 renal; test: NCI tumour cell line growth inhibition, 48 h; in the data active = GI50 below about 0.43 µM; inactive = the rest
Outcomes: active, inactive

compound	subject-of-test	qualitative-label
O=C1C=C(N2CC2)C(=O)C=C1N1CC1	RXF 393 renal	active
O=c1ccccc(-c2ccc(-c3ccco3)cc2)c1O	RXF 393 renal	inactive
COc1c(B(O)O)cccc1-c1nc2c(F)cc3[nH]ncc3c2c2c1CCCC2	RXF 393 renal	active
COc1cccc(-c2nc(-c3ccc(NC(=O)c4ccccc4)cc3)[nH]c2-c2ccnc(Br)c2)c1	RXF 393 renal	active
O=C1CCC2=C3C4CCCCC4C(=O)C4CCCC(OC2C1)C34 (stereo unspecified)	RXF 393 renal	inactive
CCn1cc(C(=O)N/N=C/c2cccc(F)c2)c(=O)c2cc(F)c(N3CCNC(C)C3)c(F)c21 (stereo unspecified)	RXF 393 renal	inactive
COc1cc([C@@H]2c3cc4c(cc3[C@H](OC(C)=O)[C@H]3COC(=O)[C@H]23)OCO4)cc(OC)c1OC	RXF 393 renal	active
COc1cc(C)[nH]c(=O)c1CN1CCc2c(Cl)cc([C@H](OC)C3COC3)c(Cl)c2C1=O	RXF 393 renal	inactive
Cc1ccc2c(N/N=C\c3ccco3)cc(C)nc2n1	RXF 393 renal	inactive
CC1(C)CCC2(C(=O)O)CC[C@]3(C)C(=CCC4C5(C)CC[C@H](OC6OC(C(=O)O)C(O)C(OC7OC(CO)C(O)C(O)C7O)C6OC6OC(CO)C(O)C(O)C6O)C(C)(C)C5CCC43C)C2C1 (stereo partly specified)	RXF 393 renal	inactive
C#Cc1cccc(Nc2ncnc3ccc(-c4cnc(Cl)c(NS(C)(=O)=O)c4)cc23)c1	RXF 393 renal	active
COc1cc2c(=O)n(CCCn3ccnc3)c3c4cc5c(cc4ccc3c2cc1OC)OCO5	RXF 393 renal	active
O=C1/C=C/[C@@H](O)[C@@H]2C[C@@H](O)C[C@H]2/C=C/CCC[C@H](CO)O1	RXF 393 renal	inactive
CCC1CCCCN1C(=S)N/N=C(\C)c1ccccn1 (stereo unspecified)	RXF 393 renal	inactive
C[C@@H](Oc1cc(NS(=O)(=O)N2CCC2)nc(SCc2cccc(F)c2F)n1)[C@@H](O)CO	RXF 393 renal	inactive
Cc1cccc2c1NC(=O)[C@@]21[C@H](C(=O)c2ccccc2)[C@]2(C(=O)Nc3ccccc32)[C@H]2CCCN21	RXF 393 renal	inactive
CCC(c1ccc(OC)cc1)C(CC)c1ccc(O)c(CN2CCCC2)c1 (stereo unspecified)	RXF 393 renal	inactive
COc1ccccc1N1CCN(C(=O)c2ccc(NS(=O)(=O)c3cccc4cccnc34)cc2)CC1	RXF 393 renal	inactive
N=C1C(c2nc3ccccc3s2)=C(O)CN1c1ccc(Cl)cc1Cl	RXF 393 renal	inactive
O=C(NC1CCN(Cc2ccccc2)CC1)c1cc(C(=O)NC2CCN(Cc3ccccc3)CC2)cc(C(=O)NC2CCN(Cc3ccccc3)CC2)c1	RXF 393 renal	inactive
O=C(Nc1ccc(Cl)cc1)c1cc2cc(F)ccc2cc1O	RXF 393 renal	inactive

----------
tested on: SK-MEL-5 melanoma; assay: NCI tumour cell line growth inhibition, 48 h
assay-metric: TGI

molecule	measured-result
CC1(C)N=C(/C=N/O)C(C)(C)N1O	> 100 µM
O=C1/C(=C/c2ccccc2Br)COc2ccc(O)c(O)c21	3.01 µM
CCn1cc(C(=O)N/N=C/c2cccc(F)c2)c(=O)c2cc(F)c(N3CCNC(C)C3)c(F)c21 (stereo unspecified)	3.19 µM
CC(C(=O)c1ccccc1)C1(O)C(=O)Nc2ccccc21 (stereo unspecified)	> 100 µM
C[C@@H](Oc1cc(NS(=O)(=O)N2CCC2)nc(SCc2cccc(F)c2F)n1)[C@@H](O)CO	> 100 µM
CCN(CC)CCSc1nc2c(c(=N)n1-c1ccccc1)c(=S)n(-c1ccccc1)c(=S)n2-c1ccccc1	11.4 µM
COc1ccc(Cl)cc1NC(=O)c1c(NC(=O)C(F)(F)C(F)(F)F)sc2c1CCCCC2	0.585 µM
O=C1NC(=O)C(=O)C(c2nc3ccccc3s2)C1=O	> 100 µM
COc1ccc2c(c1)CCCN1CCc3cc(OC)c(OC)cc3C21 (stereo unspecified)	> 100 µM
CC(=O)N1N=C(N)CC1=O	> 100 µM
Cc1ccc(NC(=O)CC/C(CC(=O)c2ccc(Cl)cc2)=N\NC(=O)C(=O)NN)cc1C	> 100 µM
Cc1ccc(/C=N/NC2=NCCN2)s1	> 100 µM
C[C@]12CC(C#N)C(=O)C(O)=C1CC[C@@H]1C2CC[C@@]2(C)C1CC[C@@H]2O (stereo partly specified)	> 100 µM
CN(C)CCNC1=CC(=O)c2c(O)ccc(O)c2C1=O	3.28 µM
N#Cc1nn(C2OC(COC(=O)c3ccccc3)C(OC(=O)c3ccccc3)C2OC(=O)c2ccccc2)c2nc[nH]c(=O)c12 (stereo unspecified)	65.6 µM
O=c1[nH]c2ccc(CC(=S)N3CCN(c4ccccc4)CC3)cc2o1	> 100 µM
COc1cc(C)[nH]c(=O)c1CN1CCc2c(Cl)cc([C@H](OC)C3COC3)c(Cl)c2C1=O	> 100 µM
NCCCc1c(-c2ccccc2)nc(N)[nH]c1=O	> 100 µM
NCC(=O)N1CCN(c2nc(N3CCCC3)c3nc(Cl)c(NCc4ccccc4)nc3n2)CC1	3.17 µM
CCN(CC)C(=O)CNC(=O)OC(C)(C)C	> 100 µM
O=CC1OC(=O)c2cc(O)c(O)c(O)c2-c2c(cc(O)c(O)c2O)C(=O)OC1C(O)C(O)CO (stereo unspecified)	> 100 µM
COC(=O)c1ccc(CCc2cc(O)c(Br)cc2O)cc1	23.7 µM
COc1ccccc1N=N/C(=N/NC(=O)c1ccc(C)cc1)c1ccc(N(CCC#N)CCC#N)cc1OC	> 100 µM
COc1cc(C(=O)Nc2c3ccccc3nc3ccccc23)cc(OC)c1OC	> 100 µM
COC(=O)c1cc2c3c(cc(O)c2[nH]1)N(C(=O)C1Cc2cc(OC)c(OC)c(OC)c2N1)CC3CCl (stereo unspecified)	< 0.01 µM
COC1CC2C=CC3C4OC2(/C(C)=C/C(C)C(C(C)O)OC1=O)C3C(O)C(C)C4OC(=O)c1ccc[nH]1 (stereo unspecified)	> 100 µM
CC(=N/NC(=S)N1CCCCC1)/C(C)=N\NC(=S)N1CCCCC1	3.07 µM
COc1ccc(C(=O)C(Br)C(Br)C(=O)O)cc1 (stereo unspecified)	> 100 µM
COC(OC)(c1ccccc1)C(I)I	21.9 µM
COc1ccc(-n2c3c(c4c(CN(C)C)c(O)ccc42)C(=O)c2ccccc2C3=O)cc1	5.67 µM
CCN(CC)CCOC(=O)/C(=C/c1ccc(OC)cc1)c1cc(OC)c(OC)c(OC)c1	11.4 µM
CCOC(=O)/C(C#N)=C\C=C1/C=CNC2=NCCN21	> 100 µM
COc1cc2c3c(n(Cc4ccccc4)c(=O)c2cc1OC)-c1ccccc1C3=O	> 100 µM
Cc1cccc2c1NC(=O)[C@@]21[C@H](C(=O)c2ccccc2)[C@]2(C(=O)Nc3ccccc32)[C@H]2CCCN21	> 100 µM
CC(C)(C)N1CC(OC(N)=O)C1	> 100 µM
CSc1nncc2[nH]cnc12	> 100 µM
COC1(OC)C2(Cl)C(Cl)=C(Cl)C1(Cl)C1COCC12 (stereo unspecified)	> 100 µM
CC1(C)CCC2(C(=O)O)CC[C@]3(C)C(=CCC4C5(C)CC[C@H](OC6OC(C(=O)O)C(O)C(OC7OC(CO)C(O)C(O)C7O)C6OC6OC(CO)C(O)C(O)C6O)C(C)(C)C5CCC43C)C2C1 (stereo partly specified)	> 100 µM
COc1ccc(CCc2ccc(O)c(C(=O)O)c2)cc1OC	> 100 µM
CCCC1C(=O)C(CC)Cc2c(OC)ccc(OC)c21 (stereo unspecified)	> 100 µM
COC1OC(CBr)C(OC(c2ccccc2)(c2ccccc2)c2ccccc2)C(OC(c2ccccc2)(c2ccccc2)c2ccccc2)C1OC(c1ccccc1)(c1ccccc1)c1ccccc1 (stereo unspecified)	> 100 µM
